Entries annotated with measured melting point

// below: answered compounds
INSERT INTO results (compound, readout_type, observed_value) VALUES
  ('CCOC(=O)CCC(=O)Oc1cc([N+](=O)[O-])cc([N+](=O)[O-])c1OC(=O)CCC(=O)OCC', 'melting point', '60 to 63 °C'),
  ('O=C(O)COc1ccc(SCc2ccc(OCc3ccc(Cl)cc3Cl)cc2)c2c1CCC2', 'melting point', '149 to 150 °C'),
  ('O=C(O)C1C2CCC(=O)C21 (configuration not stated)', 'melting point', '110 to 115 °C'),
  ('O=C1NC(=O)N(CCc2ccccc2)C1O (configuration not stated)', 'melting point', '168 to 169 °C');

Q) Using the record for `COC(=O)c1cscc1NC(=O)NCCN1CCN(c2ccccc2OC)CC1` , report its melting point.
A) 195 to 199 °C

Q) Using the record for `ClCc1ccc(C#Cc2ccccc2)cc1` , report its melting point.
A) 61.5 to 63.5 °C

Q) Using the record for `CCON1CCC(NC(=O)Cc2c(C)cc(C)cc2C)(C(=O)OC)CC1` , report its melting point.
A) 131 to 132 °C

Q) Using the record for `COCCOc1cc(/C=C/C(=O)O)n(Cc2ccc(Cl)cc2Cl)n1` , report its melting point.
A) 171 to 172 °C

Q) Using the record for `Fc1ccc(-c2cc3cccc(Cl)n3n2)cc1` , report its melting point.
A) 156 to 157 °C

Q) Using the record for `O=C1CCC(c2ccc(-c3cccnc3)cc2)=NN1` , report its melting point.
A) 225 to 226 °C
